# measurementTarget: UniProt P00533
# Sequence (P00533 whole entry, the tested form may be a part): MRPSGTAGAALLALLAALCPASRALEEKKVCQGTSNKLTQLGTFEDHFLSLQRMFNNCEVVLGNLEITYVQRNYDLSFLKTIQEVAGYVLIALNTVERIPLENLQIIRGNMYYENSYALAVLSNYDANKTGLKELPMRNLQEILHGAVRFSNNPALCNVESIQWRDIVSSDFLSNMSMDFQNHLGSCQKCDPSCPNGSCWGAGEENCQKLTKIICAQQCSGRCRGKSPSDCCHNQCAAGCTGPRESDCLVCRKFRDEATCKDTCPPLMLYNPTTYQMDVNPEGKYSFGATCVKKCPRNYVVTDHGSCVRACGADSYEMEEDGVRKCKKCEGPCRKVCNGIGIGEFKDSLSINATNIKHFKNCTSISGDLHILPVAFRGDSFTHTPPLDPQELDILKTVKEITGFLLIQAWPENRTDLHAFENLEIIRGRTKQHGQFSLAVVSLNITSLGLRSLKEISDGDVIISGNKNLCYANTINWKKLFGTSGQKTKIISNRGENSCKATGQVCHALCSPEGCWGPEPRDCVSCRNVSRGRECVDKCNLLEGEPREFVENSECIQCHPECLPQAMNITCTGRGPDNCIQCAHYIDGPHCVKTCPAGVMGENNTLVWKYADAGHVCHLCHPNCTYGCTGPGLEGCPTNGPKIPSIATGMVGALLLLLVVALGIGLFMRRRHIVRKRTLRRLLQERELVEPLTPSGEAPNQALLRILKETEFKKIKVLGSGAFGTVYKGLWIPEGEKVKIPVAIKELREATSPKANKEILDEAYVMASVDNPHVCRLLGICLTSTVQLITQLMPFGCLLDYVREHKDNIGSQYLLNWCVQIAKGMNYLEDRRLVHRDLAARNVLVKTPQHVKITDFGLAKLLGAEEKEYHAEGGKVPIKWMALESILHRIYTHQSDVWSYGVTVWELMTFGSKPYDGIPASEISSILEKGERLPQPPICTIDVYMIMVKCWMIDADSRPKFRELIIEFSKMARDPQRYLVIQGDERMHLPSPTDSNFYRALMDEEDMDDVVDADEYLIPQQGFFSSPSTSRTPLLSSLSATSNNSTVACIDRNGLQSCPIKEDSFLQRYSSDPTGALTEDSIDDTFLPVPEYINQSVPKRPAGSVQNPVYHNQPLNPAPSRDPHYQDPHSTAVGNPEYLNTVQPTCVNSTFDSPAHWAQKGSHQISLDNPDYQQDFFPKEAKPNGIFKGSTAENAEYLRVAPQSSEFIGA
# methodDescription: Inhibition of recombinant EGFR catalytic domain in presence of 1 uM radiolabeled ATP
measurementLabel: pIC50
Units for pIC50: none; it is -log10 of a concentration expressed in mol/L.

Query: // query pIC50 value for entry Cc1ccc(O)cc1-n1c(=O)c2c(c3c(N)ncnc31)CCCC2
Reply: 5.79
